Target: Retinoic acid receptor RXR-alpha (Homo sapiens, UniProt P19793)
Sequence (P19793 whole entry, the tested form may be a part): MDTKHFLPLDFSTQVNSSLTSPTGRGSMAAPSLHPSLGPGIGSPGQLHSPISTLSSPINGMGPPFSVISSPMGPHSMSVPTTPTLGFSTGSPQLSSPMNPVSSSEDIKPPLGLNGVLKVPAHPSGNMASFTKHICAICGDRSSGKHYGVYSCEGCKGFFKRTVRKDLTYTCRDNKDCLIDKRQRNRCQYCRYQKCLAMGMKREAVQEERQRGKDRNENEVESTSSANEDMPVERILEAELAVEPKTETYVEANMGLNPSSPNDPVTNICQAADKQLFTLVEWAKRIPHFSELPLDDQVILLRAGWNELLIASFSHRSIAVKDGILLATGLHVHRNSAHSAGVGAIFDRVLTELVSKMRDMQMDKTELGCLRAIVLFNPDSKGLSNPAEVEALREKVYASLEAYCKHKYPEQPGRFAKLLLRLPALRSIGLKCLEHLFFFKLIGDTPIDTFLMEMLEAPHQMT
Assay: Agonist activity at recombinant GST-tagged human RXRalpha LBD assessed as fluorescein-labeled coactivator peptide recruitment preincubated with enzyme followed by coactivator addition by LanthaScreen TR-FRET assay
pEC50: −log10 of the molar value.
outcomeMeasure: pEC50

Request: Specify reported pEC50 for the molecule shown: CN1CC[C@@H](N2C(=O)S/C(=C\c3ccc4c(cnn4Cc4ccc(Cl)cc4C(F)(F)F)c3)C2=O)[C@H](F)C1
Response: < 5.00

###

Experiment: Drug uptake in muscle of Zucker rat sub-chronic fa/fa prediabetic model at 12.5 mg/kg, po qd for 11 days
Type: ADME, organism-based, Muscle tissue
Details: read-out: Drug uptake
outcomeMeasure: concentration at 264 h (ng/g)
Numbers only, in ng/g.

Request: Item CN1CC[C@@H](N2C(=O)S/C(=C\c3ccc4c(cnn4Cc4ccc(Cl)cc4C(F)(F)F)c3)C2=O)[C@H](F)C1 : provide concentration at 264 h
Response: 2820

###

Biological target: Steroid hormone receptor ERR1 (Homo sapiens, UniProt P11474)
Sequence (P11474 whole entry): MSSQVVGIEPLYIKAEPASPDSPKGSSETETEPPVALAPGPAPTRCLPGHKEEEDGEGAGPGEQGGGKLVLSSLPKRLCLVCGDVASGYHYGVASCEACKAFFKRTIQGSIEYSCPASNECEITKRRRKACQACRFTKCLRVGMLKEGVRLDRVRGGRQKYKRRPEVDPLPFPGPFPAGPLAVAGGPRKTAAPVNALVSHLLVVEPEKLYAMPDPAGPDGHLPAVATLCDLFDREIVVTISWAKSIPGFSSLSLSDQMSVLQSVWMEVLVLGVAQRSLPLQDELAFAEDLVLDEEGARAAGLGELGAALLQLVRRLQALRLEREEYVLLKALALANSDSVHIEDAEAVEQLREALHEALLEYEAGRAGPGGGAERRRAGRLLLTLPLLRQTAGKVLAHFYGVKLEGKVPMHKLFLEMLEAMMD
Lab note - cut at 20 nM for IC50: met if strictly below, not met if not.

Request: IC50 strictly < 20 nM for this compound? O=C1S/C(=C\c2ccc3c(cnn3Cc3ccc(Cl)cc3C(F)(F)F)c2)C(=O)N1C1CCN(CCO)CC1
Response: met

Request: hey, is IC50 for CN1CC[C@H](N2C(=O)S/C(=C\c3ccc4c(cnn4Cc4ccc(Cl)cc4C(F)(F)F)c3)C2=O)[C@H](F)C1 (relative stereo) lower than 20 nM or not?
Response: not met

Request: Given O=C1S/C(=C\c2ccc3c(cnn3Cc3ccc(Cl)cc3C(F)(F)F)c2)C(=O)N1CCN1CCOCC1 , is recorded IC50 strictly lower than 20 nM?
Response: not met

Request: Lab log: compare recorded IC50 with 20 nM; is it strictly lower for NS(=O)(=O)NC(=O)CN1C(=O)S/C(=C\c2ccc3c(cnn3Cc3ccc(Cl)cc3C(F)(F)F)c2)C1=O ?
Response: met

Request: Just wondering, is IC50 of O=C(CN1C(=O)S/C(=C\c2ccc3c(cnn3Cc3ccc(Cl)cc3C(F)(F)F)c2)C1=O)NS(=O)(=O)N1CCCC1 below 20 nM?
Response: not met

###

Assay: Cmax in […] chronic ob/ob model at 10 mg/kg, po qd for 28 days measured on day 28 post last dose
Assay type: ADME, organism-based
Parameters: dose 10 mg/kg, route oral
Details: in vivo
outcomeMeasure: Cmax (ng/mL)
Answers are plain numbers, in ng/mL.

Request: Output Cmax of CN1CC[C@@H](N2C(=O)S/C(=C\c3ccc4c(cnn4Cc4ccc(Cl)cc4C(F)(F)F)c3)C2=O)[C@H](F)C1
Response: 454

###

Molecular target: Peroxisome proliferator-activated receptor delta (Homo sapiens)
Sequence (Q03181 whole entry, the tested form may be a part): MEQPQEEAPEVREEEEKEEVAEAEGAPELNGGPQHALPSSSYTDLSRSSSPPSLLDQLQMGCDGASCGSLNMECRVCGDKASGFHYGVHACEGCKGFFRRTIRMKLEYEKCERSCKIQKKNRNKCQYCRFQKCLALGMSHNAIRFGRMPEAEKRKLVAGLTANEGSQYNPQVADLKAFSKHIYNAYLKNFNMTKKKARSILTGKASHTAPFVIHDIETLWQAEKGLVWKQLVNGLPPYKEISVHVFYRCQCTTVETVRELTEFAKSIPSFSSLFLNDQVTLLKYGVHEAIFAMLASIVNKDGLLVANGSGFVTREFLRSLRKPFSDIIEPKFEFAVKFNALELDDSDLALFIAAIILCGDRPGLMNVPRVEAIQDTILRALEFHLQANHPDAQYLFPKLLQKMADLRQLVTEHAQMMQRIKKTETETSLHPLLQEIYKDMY
Assay: Antagonist activity at recombinant GST-tagged human PPARdelta LBD assessed as inhibition of GW0742-induced fluorescein-labeled coactivator peptide recruitment preincubated with enzyme followed by coactivator addition by LanthaScreen TR-FRET assay
pIC50: −log10 of the molar value.
outcomeMeasure: pIC50

Request: Report pIC50 under test system Peroxisome proliferator-activated receptor delta (Homo sapiens) for CN1CC[C@@H](N2C(=O)S/C(=C\c3ccc4c(cnn4Cc4ccc(Cl)cc4C(F)(F)F)c3)C2=O)[C@H](F)C1 .
Response: < 5.00

###

Target: UniProt P11474
Sequence (P11474 whole entry): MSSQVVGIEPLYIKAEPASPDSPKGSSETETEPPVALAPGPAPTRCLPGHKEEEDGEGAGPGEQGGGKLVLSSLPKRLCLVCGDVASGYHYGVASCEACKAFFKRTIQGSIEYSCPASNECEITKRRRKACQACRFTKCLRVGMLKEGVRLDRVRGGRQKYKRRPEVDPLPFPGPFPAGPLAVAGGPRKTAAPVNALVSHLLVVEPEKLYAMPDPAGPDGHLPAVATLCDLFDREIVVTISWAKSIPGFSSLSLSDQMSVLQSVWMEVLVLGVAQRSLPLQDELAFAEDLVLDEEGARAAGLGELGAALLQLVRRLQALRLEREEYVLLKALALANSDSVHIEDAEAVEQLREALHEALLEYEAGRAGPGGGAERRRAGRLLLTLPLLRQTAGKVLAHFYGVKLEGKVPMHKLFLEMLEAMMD
outcomeMeasure: pIC50
One number for each entry, as −log10 of the molar value.

COc1ccc(Cn2ncc3cc(/C=C4\SC(=O)N(CC(=O)O)C4=O)ccc32)c(C(F)(F)F)c1: 8.05

Lab note: each compound below needs its pIC50 filled in.
1. Cc1nn(Cc2ccc(Cl)cc2C(F)(F)F)c2ccc(/C=C3\SC(=O)N(CC(=O)O)C3=O)cc12
2. CN1CC[C@@H](N2C(=O)S/C(=C\c3ccc4c(cnn4Cc4ccc(Cl)cc4C(F)(F)F)c3)C2=O)[C@H](F)C1
3. CS(=O)(=O)NC(=O)CN1C(=O)S/C(=C\c2ccc3c(cnn3Cc3ccc(Cl)cc3C(F)(F)F)c2)C1=O
4. COc1ccc(Cn2ncc3cc(/C=C4\SC(=O)N(CCN5CCOCC5)C4=O)ccc32)c(C(F)(F)F)c1
5. O=C1S/C(=C\c2ccc3c(cnn3Cc3ccc(Cl)cc3C(F)(F)F)c2)C(=O)N1C[C@H]1COCCN1
6. O=C1S/C(=C\c2ccc3c(cnn3Cc3ccc(Cl)cc3C(F)(F)F)c2)C(=O)N1Cc1nnn[nH]1
7. CC(=O)NS(=O)(=O)CN1C(=O)S/C(=C\c2ccc3c(cnn3Cc3ccc(Cl)cc3C(F)(F)F)c2)C1=O

Response:
7.55
7.64
7.74
8.10
7.82
7.89
8.10

###

Assay: Tmax in […] at 15 mg/kg administered via oral gavage by LC-MS analysis
Type: ADME, organism-based
Details: in vivo
outcomeMeasure: Tmax (h)
Give bare numbers, in h.

Request: Assign Tmax to the following record: CN1CC[C@@H](N2C(=O)S/C(=C\c3ccc4c(cnn4Cc4ccc(Cl)cc4C(F)(F)F)c3)C2=O)[C@H](F)C1
Response: 2.5

###

Assay: Cmax in Zucker rat sub-chronic fa/fa prediabetic model at 3 mg/kg, po qd measured on day 1 post dose
Format: ADME, organism-based
Set-up: dose 3 mg/kg, route oral
Conditions: in vivo
outcomeMeasure: Cmax (ng/mL)
Numbers only, in ng/mL.

Request: For the molecule CN1CC[C@@H](N2C(=O)S/C(=C\c3ccc4c(cnn4Cc4ccc(Cl)cc4C(F)(F)F)c3)C2=O)[C@H](F)C1 , give its measured Cmax value.
Response: 725

###

Experiment: AUC (0 to 24 hrs) in […] model at 10 mg/kg, po qd for 28 days measured on day 28 post last dose
Format: ADME, organism-based
Set-up: time < 24 hr, dose 10 mg/kg, route oral
Conditions: in vivo
outcomeMeasure: AUC at 24 h
The reply should consist of the numeric value with the unit placed after it.

Request: Retrieve AUC at 24 h measured for CN1CC[C@@H](N2C(=O)S/C(=C\c3ccc4c(cnn4Cc4ccc(Cl)cc4C(F)(F)F)c3)C2=O)[C@H](F)C1 and print it.
Response: 5910 ng·h/mL

###

Assay: Cmax in Zucker rat sub-chronic fa/fa prediabetic model at 10 mg/kg, po qd measured on day 1 post dose
Format: ADME, organism-based
Parameters: dose 10 mg/kg, route oral
Conditions: in vivo
outcomeMeasure: Cmax
Record the result as a number with its unit.

Request: Tell me its Cmax given CN1CC[C@@H](N2C(=O)S/C(=C\c3ccc4c(cnn4Cc4ccc(Cl)cc4C(F)(F)F)c3)C2=O)[C@H](F)C1 as the entry.
Response: 1570 ng/mL

###

Experiment: AUC (0 to 24 hrs) in Zucker rat sub-chronic fa/fa prediabetic model at 10 mg/kg, po qd measured on day 1 post dose
Assay type: ADME, organism-based
Parameters: time < 24 hr, dose 10 mg/kg, route oral
Conditions: in vivo
outcomeMeasure: AUC(0-t) at 24 h (µg·h/mL)
Numbers only, in µg·h/mL.

Request: Let me know recorded AUC(0-t) at 24 h for CN1CC[C@@H](N2C(=O)S/C(=C\c3ccc4c(cnn4Cc4ccc(Cl)cc4C(F)(F)F)c3)C2=O)[C@H](F)C1 , thanks.
Response: 18.1
